# Test system: OVCAR-3
# method notes: NCI tumour cell line growth inhibition, 48 h
Activity calls are given as the source filed them. No stated cut-off is given here; in the data, active = GI50 up to about 1.1 µM and inactive = higher.
Outcomes: yes = active, no = inactive

compound	assigned label
N#Cc1c(N2CCCC2)nsc1NCc1ccccc1	no
N#CC12C(=O)N3C(=NC(c4ccccc4)NC3c3ccccc3)C1(C#N)C(c1ccccc1)NC1=C2CCCC1 (stereo not drawn)	no
CCOC(=O)c1cn2c(n1)sc1c(Cl)c(Cl)ccc12	no
CN(/N=C(\C(=O)O)c1ccccc1)C1=NCCCN1	no
NC(=O)NC1C(c2ccccc2)=C1c1ccccc1	no
O=C(COc1ccc(OCC(=O)N2C(=O)CC/C2=N\c2ccc(Cl)cc2)cc1)N1C(=O)CS/C1=N\c1ccc(Cl)cc1	no
O=C(/C=C/c1ccsc1)c1ccco1	no
CC(C)(C)N1C=[N+](C(C)(C)C)CC1	no
OCC1OC(n2cnc3c2NC=NC[C@H]3O)CC1O (stereo partly drawn)	no
NS(=O)(=O)c1nnc(NC(=O)c2cccc([N+](=O)[O-])c2)s1	no
COC(=O)C1C(O)CC(c2ccccn2)N(Cc2ccccc2)C1c1ccccn1 (stereo not drawn)	no
Cc1c2cc[n+]([O-])cc2c(C)c2c1[nH]c1ccccc12	no
C=CCN1C[C@H](C)N([C@@H](c2ccc(C(=O)N3CCCCC3)cc2)c2cccc(OC)c2)C[C@H]1C	no
COc1ccc2nc3cc(Cl)ccc3c(NCCCN(Cc3cc(OC)c(OC)c(OC)c3)Cc3cc(OC)c(OC)c(OC)c3)c2c1	no
CN(C)c1ccc(/C=c2/c3ccccc3n3c2cc(C24CC5CC(CC(C5)C2)C4)[n+]3C)cc1	yes
CCCCCNC(=O)OC1CCn2c1nc1c2C(=O)C(C)=C(N2CC2)C1=O (stereo not drawn)	no
CC(C)OCC(O)COc1cc(=O)oc2ccccc12 (stereo not drawn)	no
CC(C)(C)c1cc2ccc(C(N)=O)cc2c(=O)[nH]1	no
CC(C)(CC#N)c1cc(CC(C)(C)c2cc(CC(C)(C)c3cc(C(C)(C)C4(C)OCCO4)no3)no2)no1	no
COC(=O)/C(Cl)=C1/CC1COCc1ccccc1 (stereo not drawn)	no
COc1ccc(CCN2CCOCC2)cc1	no
O=C1Nc2ccccc2/C1=C1\C(=O)Nc2ccccc21	no
CCOC(=O)C1C(c2ccc(OC)cc2)c2c(nn(-c3ccccc3)c2O)CC1(O)OCC (stereo not drawn)	no
c1cc2ccc1C1NCCCN1CCN1CCCNC1c1ccc(cc1)C1NCCCN1CCN1CCCNC21 (stereo not drawn)	no
O=S1(=O)NN=C(NCc2ccc(Cl)c(Cl)c2)c2ccccc21	no
CC(C)(C)c1cc(C2NCCO2)cc(C(C)(C)C)c1O (stereo not drawn)	no
CCCCCCCCCCCCN(O)C(=O)c1ccccc1	no
O=C1CCC2SC1CCC2=O	no
COc1ccc(C2SC(=N)Nc3c2c(C)nn3C(=O)c2ccc(Cl)cc2)cc1OC (stereo not drawn)	no
Cc1cc(C)n(CN(CCCCO)Cn2nc(C)cc2C)n1	no
CC(=O)OCC1OC(OC2CC3C(C)(C)C(O)CC[C@]3(C)C3CCC45CC4(CCC5[C@@H](C)CC(O)C(O)C(C)(C)O)[C@]23C)C(O)C(O)C1O (stereo partly drawn)	no
CCOP(=O)(O)C(Nc1ccc(/N=N/c2ccccc2)cc1)c1cccc(C(Nc2ccc(/N=N/c3ccccc3)cc2)P(=O)(O)OCC)c1 (stereo not drawn)	no
CC1=CC(=O)N2C(OC[C@@H]2c2ccccc2)O1 (stereo partly drawn)	no
Nc1nncc2c1ccn2C1OC(CO)C(O)C1O (stereo not drawn)	no
O=c1[nH]c2ccc([N+](=O)[O-])cc2nc1/C(=N/Nc1ccccc1)C(O)c1ccco1 (stereo not drawn)	no
COc1ccc(-c2csc(Cc3nc4ccccc4c(=O)n3-c3ccc(Cl)cc3)n2)cc1	no
Cc1nnc2n1N=C(c1cc(F)c(Cl)cc1Cl)/C(=C/c1ccc3c(c1)OCO3)S2	no
CC(=O)OCC1OC(NC(=S)Nn2c(-c3ccccc3)nc3ccccc3c2=O)C(OC(C)=O)C(OC(C)=O)C1OC(C)=O (stereo not drawn)	no
CSc1ncc2c(C#N)c3ccccn3c(=O)c2n1	no
FC(F)(F)c1ccc2nc3n(c2c1)C(c1c(Cl)cccc1Cl)SC3 (stereo not drawn)	no
CCN1C(=O)C(=C/C=C/C=C2/N(C)c3ccccc3C2(C)C)C(=O)N(CC)C1=S	no
Oc1ncnc2c1CCCN2	no
CCCCN/N=N/c1cn(C2OC(CO)C(O)C2O)c(=O)[nH]c1=O (stereo not drawn)	no

###

# Test system: SN12C
# method notes: NCI tumour cell line growth inhibition, 48 h
The source made the active and inactive calls. Rule as the data show it: active = GI50 up to about 1.1 µM and inactive = higher. Square brackets hold non-standard residues; d marks the D form. Peptide text beside a SMILES is read from it. * marks the point of attachment. X26 = COC1=CC(=O)N(C(=O)[C@@H](O*)C(C)C)[C@H]1Cc1ccccc1; NMeV = CN[C@H](C(=O)O)C(C)C; Hexanoyl = CCCCCC(=O)*
Below, each entry is listed with its recorded GI50.

molecule	GI50
O=C(Nc1ccc(C(F)(F)F)cc1)NC(F)(F)F	> 100 µM (inactive)
O=C1C2CC=CCC2C(=O)N1n1c(Cc2ccccc2)n[nH]c1=O (stereo unspecified)	> 100 µM (inactive)
N=C1CSC2=NC3=C(CCC/C3=C\c3ccccc3)C(c3ccccc3)N12 (stereo unspecified)	11.5 µM (inactive)
Oc1ccc([I+]c2ccccc2)cc1O	40.5 µM (inactive)
CC(=O)OCC1OC(OC(C)=O)C(Nc2ncc(-c3ccc(C)cc3)s2)C(OC(C)=O)C1OC(C)=O (stereo unspecified)	18.2 µM (inactive)
Cc1nnc2n1-c1ccccc1N(Cc1ccccc1)CC2	58.7 µM (inactive)
CC1=C(C(=O)Nc2ccc([N+](=O)[O-])cc2)C(c2ccc(N(C)C)cc2)C(C(=O)Nc2ccc([N+](=O)[O-])cc2)=C(C)N1	> 10 µM (inactive)
Clc1cc(OCc2nn3c(Cc4ccccc4)nnc3s2)ccc1OCc1nn2c(Cc3ccccc3)nnc2s1	45.3 µM (inactive)
COc1ccc(S(=O)(=O)NC(C)C(=O)O)cc1 (stereo unspecified)	> 100 µM (inactive)
CN(/N=C(\C(=O)O)c1ccccc1)C1=NCCCN1	> 100 µM (inactive)
Nc1nc(Cl)nc2c1ncn2C1CCC(COP(=O)(O)OP(=O)(O)OP(=O)(O)O)O1 (stereo unspecified)	38.8 µM (inactive)
S=c1[nH]c(Cl)cc2nc(Cl)cn12	7.29 µM (inactive)
CCCCCC(=O)N[C@H](C(=O)N[C@H](C(=O)N(C)[C@H](C(=O)N1CCC[C@H]1C(=O)N1CCC[C@H]1C(=O)O[C@H](C(=O)N1C(=O)C=C(OC)[C@@H]1Cc1ccccc1)C(C)C)C(C)C)C(C)C)C(C)C (Hexanoyl-VV[NMeV]PP-X26)	94.6 µM (inactive)
CSc1nc(NC2CC2)c2c(n1)Sc1nc3ccccc3n1N=C2	8.55 µM (inactive)
Nc1nc2c(nnn2C2C=C(CO)C(O)C2O)c(=O)[nH]1 (stereo unspecified)	94.4 µM (inactive)
O=C1CCC2SC1CCC2=O	> 100 µM (inactive)
FC(F)(F)c1ccc2nc3n(c2c1)C(c1c(Cl)cccc1Cl)SC3 (stereo unspecified)	18.1 µM (inactive)
CN1CC(=O)N(C)c2ncn(Cc3ccccc3)c2C1=O	> 100 µM (inactive)
NC(=O)NNc1nc(-c2ccccc2)cs1	> 100 µM (inactive)
O=C(N/N=C/c1cc(-c2ccccc2Cl)c(-c2ccccc2Cl)o1)c1ccncc1	> 100 µM (inactive)
Clc1ccccc1/C=C/c1nsc(/C=C/c2ccccc2Cl)n1	23.6 µM (inactive)

###

# Test system: EKVX
# method notes: NCI tumour cell line growth inhibition, 48 h
Active and inactive are the calls of the source. Rule as the data show it: active = GI50 up to about 1.1 µM and inactive = higher.
Outcomes: active, inactive

> print(dat)
                                    compound  assigned.label
 1  c1ccc(-c2[nH]c(-c3ccccc3)c(-c3cnccn3)c2-c2cnccn2)cc1        inactive
 2  COc1ccc(C2SC(=N)Nc3c2c(C)nn3C(=O)c2ccc(Cl)cc2)cc1OC (stereo unspecified)        inactive
 3  CC1CCOc2ccc(cc2)/C=N\c2ccc(cc2)CCc2ccc(cc2)/N=C\c2ccc(cc2)OCC1        inactive
 4  C=CNC(=S)n1nc(-c2ccccc2NC(=O)C(F)(F)F)c(=O)n(C(=S)NC=C)c1=S        inactive
 5  O=C1N/C(=N/N=C/C(O)C(O)C(O)C(O)CO)N/C1=C\c1ccco1 (stereo unspecified)        inactive
 6  N#CC(N)(C(=O)CCC(=O)Nc1cccc(Cl)c1)c1ccc(Cl)cc1 (stereo unspecified)        inactive
 7  Clc1cc(OCc2nn3c(Cc4ccccc4)nnc3s2)ccc1OCc1nn2c(Cc3ccccc3)nnc2s1        inactive
 8  COc1cc(C2C(Cl)C(=O)N2NC(=O)c2ccc(NC(C)=O)cc2)ccc1O (stereo unspecified)        inactive
 9    Cl/C(=C\C=N\c1ccc(I)cc1)c1ccc2ccccc2c1        inactive
10  COc1cc2nc(-c3cccs3)nc(N3C(c4cc(OC)c(OC)c(OC)c4)=NNC(=O)c4ccccc43)c2cc1OC        inactive
11   CCc1cccc(CC)c1NC(=O)/C(Cl)=C(/Cl)C(=O)O        inactive
12                       N#CCC(=O)N1CCCOCCC1        inactive
13  CN(C)S(=O)(=O)/N=C/c1cccc(/C=N/S(=O)(=O)N(C)C)c1        inactive
14  CC1=NNC(=O)C1C1CC(c2c[nH]c3ccccc23)=NN(c2ccccc2)C1=O (stereo unspecified)        inactive
15  COC(=O)C1=C(C(=O)OC)c2cc(OC)ccc2C(C(=S)N(C)C)S1 (stereo unspecified)        inactive
16  O=C(/C=C/c1cccc(Br)c1)N1CCN(CCOC(c2ccccc2)c2ccccc2)CC1        inactive
17  CC(=O)Nc1ccc2c3c(cc(O)c2c1)N(C(=O)CCCCCCC(=O)Nc1ccc2c4c(cc(O)c2c1)N(C(=O)OC(C)(C)C)CC4CCl)CC3CCl (stereo unspecified)          active
18  O=[N+]([O-])c1ccc(C2=NOC(c3ccccc3)N2C23CC4CC(CC(C4)C2)C3)cc1 (stereo unspecified)        inactive
19                S=c1[nH]c(Cl)cc2nc(Cl)cn12        inactive
20               CC(C)(CO)CNc1nc(N)nc(Cl)c1N        inactive
21  CCCCN/N=N/c1cn(C2OC(CO)C(O)C2O)c(=O)[nH]c1=O (stereo unspecified)        inactive
